# Tested on: 941728-121-R-J1-PDC complex spheroid viability
# testSummary: Anticancer human tumor 941728-121-R-J1-PDC patient-derived lung adenocarcinoma cell line growth inhibition [RAS]
# reportedConditions: second compound 3.16 µM; first compound 3.16 µM; active compounds read low
observedProperty: viability, T/C (%)

- CC1(O)CCCC1n1c(=O)c(C(F)F)cc2cnc(NC3CCN(S(C)(=O)=O)CC3)nc21 (stereo not drawn) + C#Cc1c(F)ccc2cc(O)cc(-c3ncc4c(N5CC6CCC(C5)N6)nc(OCC56CCCN5CC(F)C6)nc4c3F)c12: 38.5
- NC1c2ccccc2OC12CCN(c1cnc3c(N4CCCc5ncccc54)n[nH]c3n1)CC2 (stereo not drawn) + C#Cc1c(F)ccc2cc(O)cc(-c3ncc4c(N5CC6CCC(C5)N6)nc(OCC56CCCN5CC(F)C6)nc4c3F)c12: 23.4
- CC(Nc1ccc2c(c1)OCCn1cc(N3C(=O)OCC3C(F)F)nc1-2)C(N)=O (stereo not drawn) + C#Cc1c(F)ccc2cc(O)cc(-c3ncc4c(N5CC6CCC(C5)N6)nc(OCC56CCCN5CC(F)C6)nc4c3F)c12: 26.2
- CC(=O)OC12COC1CC(O)C1(C)C(=O)C(O)C3=C(C)C(OC(=O)C(O)C(NC(=O)OC(C)(C)C)c4ccccc4)CC(O)(C(OC(=O)c4ccccc4)C21)C3(C)C (stereo not drawn) + C#Cc1c(F)ccc2cc(O)cc(-c3ncc4c(N5CC6CCC(C5)N6)nc(OCC56CCCN5CC(F)C6)nc4c3F)c12: 22.8
- C[C@@H](NC(=O)c1ncnc(N)c1Cl)c1ncc(C(=O)Nc2cc(C(F)(F)F)c(Cl)cn2)s1 + C#Cc1c(F)ccc2cc(O)cc(-c3ncc4c(N5CC6CCC(C5)N6)nc(OCC56CCCN5CC(F)C6)nc4c3F)c12: 30.2
- Cc1nc(N2CCC3(CC2)COC(C)C3N)c(CO)nc1Sc1ccnc(N)c1Cl (stereo not drawn) + C#Cc1c(F)ccc2cc(O)cc(-c3ncc4c(N5CC6CCC(C5)N6)nc(OCC56CCCN5CC(F)C6)nc4c3F)c12: 25.1
- CCC(CC)c1cc(NC2CCC(N)C2)n2nccc2n1 (stereo not drawn) + C#Cc1c(F)ccc2cc(O)cc(-c3ncc4c(N5CC6CCC(C5)N6)nc(OCC56CCCN5CC(F)C6)nc4c3F)c12: 15.3
- CC(C)NCC(C(=O)N1CCN(c2ncnc3c2C(C)CC3O)CC1)c1ccc(Cl)cc1 (stereo not drawn) + C#Cc1c(F)ccc2cc(O)cc(-c3ncc4c(N5CC6CCC(C5)N6)nc(OCC56CCCN5CC(F)C6)nc4c3F)c12: 24.6

----------
# System: 941728-121-R-J1-PDC complex spheroid viability
# testSummary: Anticancer human tumor 941728-121-R-J1-PDC cell line growth inhibition [RAS];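 note: spheroids exposed to compounds for 7 days before readout; 100% = DMSO vehicle control viability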
# reportedConditions: second compound 3.16 µM; first compound 0.1 µM; active compounds read low
Entries and their viability, T/C
observedProperty: viability, T/C (%)

* Nc1ccn(C2OC(CO)C(O)C2(F)F)c(=O)n1 (stereo not given) + C#Cc1c(F)ccc2cc(O)cc(-c3ncc4c(N5CC6CCC(C5)N6)nc(OCC56CCCN5CC(F)C6)nc4c3F)c12 | 28.3
* C[C@@H](NC(=O)c1ncnc(N)c1Cl)c1ncc(C(=O)Nc2cc(C(F)(F)F)c(Cl)cn2)s1 + C#Cc1c(F)ccc2cc(O)cc(-c3ncc4c(N5CC6CCC(C5)N6)nc(OCC56CCCN5CC(F)C6)nc4c3F)c12 | 32.5
* C=CC(=O)N1CCN(c2nc(OCC3CCCN3C)nc3c(F)c(-c4nc(N)cc(C)c4C(F)(F)F)c(Cl)cc23)C(C)C1 (stereo not given) + C#Cc1c(F)ccc2cc(O)cc(-c3ncc4c(N5CC6CCC(C5)N6)nc(OCC56CCCN5CC(F)C6)nc4c3F)c12 | 20.3
* O=C(c1ccc(F)c(F)c1Nc1ccc(I)cc1F)N1CC(O)([C@@H]2CCCCN2)C1 + C#Cc1c(F)ccc2cc(O)cc(-c3ncc4c(N5CC6CCC(C5)N6)nc(OCC56CCCN5CC(F)C6)nc4c3F)c12 | 25.7
* CCC(CC)c1cc(NC2CCC(N)C2)n2nccc2n1 (stereo not given) + C#Cc1c(F)ccc2cc(O)cc(-c3ncc4c(N5CC6CCC(C5)N6)nc(OCC56CCCN5CC(F)C6)nc4c3F)c12 | 33.1
* CC1(O)CCCC1n1c(=O)c(C(F)F)cc2cnc(NC3CCN(S(C)(=O)=O)CC3)nc21 (stereo not given) + C#Cc1c(F)ccc2cc(O)cc(-c3ncc4c(N5CC6CCC(C5)N6)nc(OCC56CCCN5CC(F)C6)nc4c3F)c12 | 33
* CC(=O)OC12COC1CC(O)C1(C)C(=O)C(O)C3=C(C)C(OC(=O)C(O)C(NC(=O)OC(C)(C)C)c4ccccc4)CC(O)(C(OC(=O)c4ccccc4)C21)C3(C)C (stereo not given) + C#Cc1c(F)ccc2cc(O)cc(-c3ncc4c(N5CC6CCC(C5)N6)nc(OCC56CCCN5CC(F)C6)nc4c3F)c12 | 26.7
* CCN1CCN(Cc2ccc(Nc3ncc(F)c(-c4cc(F)c5nc(C)n(C(C)C)c5c4)n3)nc2)CC1 + C#Cc1c(F)ccc2cc(O)cc(-c3ncc4c(N5CC6CCC(C5)N6)nc(OCC56CCCN5CC(F)C6)nc4c3F)c12 | 25.3
* Cc1nc(N2CCC3(CC2)COC(C)C3N)c(CO)nc1Sc1ccnc(N)c1Cl (stereo not given) + C#Cc1c(F)ccc2cc(O)cc(-c3ncc4c(N5CC6CCC(C5)N6)nc(OCC56CCCN5CC(F)C6)nc4c3F)c12 | 29.1
* CC(C)n1nc(-c2ccc3oc(N)nc3c2)c2c(N)ncnc21 + C#Cc1c(F)ccc2cc(O)cc(-c3ncc4c(N5CC6CCC(C5)N6)nc(OCC56CCCN5CC(F)C6)nc4c3F)c12 | 15.9
